Quick reference for Kd among some binders
Biological target: T1, human IL-23 (human, UniProt Q9NPF7 20-189; P29460 23-328)
T1 construct: Bought recombinant heterodimeric cytokine (eBioscience 34-8239-85 for panning; R&D Systems for the splenocyte assay); also called hIL-23; hIL23
T1 sequence (looked up) 1: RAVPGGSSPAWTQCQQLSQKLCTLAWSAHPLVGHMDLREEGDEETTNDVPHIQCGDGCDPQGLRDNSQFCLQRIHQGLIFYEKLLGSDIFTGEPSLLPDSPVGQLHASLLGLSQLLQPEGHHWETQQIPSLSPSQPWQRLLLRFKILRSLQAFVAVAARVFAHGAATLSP
T1 sequence (looked up) 2: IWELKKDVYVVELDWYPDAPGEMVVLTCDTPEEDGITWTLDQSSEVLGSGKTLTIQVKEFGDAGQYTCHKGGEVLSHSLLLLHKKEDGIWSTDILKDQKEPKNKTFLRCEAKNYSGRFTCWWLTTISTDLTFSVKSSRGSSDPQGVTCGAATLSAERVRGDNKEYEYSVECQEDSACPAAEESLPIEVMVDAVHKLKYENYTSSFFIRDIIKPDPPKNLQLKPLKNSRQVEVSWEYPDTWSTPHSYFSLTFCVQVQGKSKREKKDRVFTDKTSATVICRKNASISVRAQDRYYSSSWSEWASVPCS
Assay: phage-coated ELISA, clone displayed on phage
State the answer as a number, implicitly in pM.

MB23 (designed binder, 3 for clone 59 (conflict); also called non-PEGylated MB23 Alphabody) MSIEQIQKEITTIQEVIAAIQKYIYTMTGGSGGSGGMSIEEIQKQIAAIQCQIAAIQKQIYAMTGSGGGGSGMSIEEIQKQIAAIQEQIVAIYKQIMAMAS = 70
MB76 (designed binder) MSIQQIQKEITQIQEVIAAIQKYIYRMTGGSGGSDGMSIEEIQKQIAAIQCQIAAIQKQIYAMTGSGGGGSGMSIEEIQKQIAAIQGQILAIYKQIMAMSL = 160
MA5 (designed binder) MSIKQIQKEIAQIQEVIAAIQKWIYRMTGGSGGSGGMSIEEIQKQIAAIQCQIAAIQKQIYAMTGSGGGGSGGSGGGGSGMSIEEIQKQIAAIQDQIVAIYKQIMAMSS = 200
MA14 (designed binder) MSIEQIQTEIASIQEVIAGIQKYIYSMTGGSGGSGGMSIEEIQKQIAAIQCQIAAIQKQIYAMTGSGGGGSGMSIEEIQKQIAAIQNQIVAIYKQIMAMGG = 1500
MB43 (designed binder) MSIEEIQKEIKNIQEVIAAIQKYIYTMTGGSGGSGGMSIEEIQKQIAAIQCQIAAIQKQIYAMTGSGGGGSGGSGGGGSGMSIEEIPKQIAAIQDQIIAIYKQIMAMTR = 180

Form: binder = MB64 (designed binder) MSIQQIQKEITQIQAVIAGIQKYIYRMTGGSGGSGGGGSGGSGGMSIEEIQKQIAAIQCQIAAIQKQIYAMTGSGGGGSGMSIEEIQKQIAAIQGQIVAIYKQIMAMAT ; Kd = 90

Form field Kd, entry MA12 (designed binder, also called MAl2) MSIQEIQKEIAQIQAVIAGIQKYIYTMTGGSGGSGGGGSGGSGGMSIEEIQKQIAAIQCQIAAIQKQIYAMTGSGGGGSGGSGGGGSGMSIEEIQKQIAAIQEQILAIYKQIMAMVT : 80

Reported Kd of MB74 (designed binder) MSIQQIQKEIATIQEVIAGIQKYIYRMTGGSGGSGGGGSGGSGGMSIEEIQKQIAAIQCQIAAIQKQIYAMTGSGGGGSGMSIEEIQKQIAAIQGQILAIYKQIMAMAI : 470

Documented Kd of Cl59 (designed binder, Non-matured Alphabody from the AC11 library, tested as soluble recombinant protein; also called Clone 59; C159) MSIEEIQKQIASIQEVIAGIQKWIYMMTGGSGGSGGMSIEEIQKQIAAIQKQIAAIQKQIYAMTGGSGGGGSGMSIEEIQKQITAIKEQIIAIYKQIMAMTP : 3000
